This collection of values is drawn from PubChem BioAssay (NCATS).

Assay Procedure: qHTS Assay for Identifying Gametocytocidal Compounds (AID 743244);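 also: % is scaled to controls: 0 for no effect and ±100 for the full control effect; actives lower the fluorescent signal which means gametocytes are killed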
Test Context: P. falciparum 3D7 stage III-V gametocytes, alamarBlue, 72 h; stronger effect = lower value
Results filed as inconclusive are left out.
Reported max response values for a set of molecules
Kindly provide the numeric value in % only, without the unit symbol.

C/C=C/C1=C(C(=O)O)N2C(=O)[C@@H](NC(=O)[C@H](N)c3ccc(O)cc3)[C@H]2SC1 ... 9.08
CC[C@]1(O)CC2CN(CCc3c([nH]c4ccccc34)[C@@](C(=O)OC)(c3cc4c(cc3OC)N(C)[C@H]3[C@@](O)(C(N)=O)[C@H](O)[C@]5(CC)C=CCN6CC[C@]43[C@@H]65)C2)C1 (stereo partly specified) ... -7.92
CCCCCCCCCCCCCCCC(=O)O[C@@H]1[C@@H](O)[C@@H](O)[C@@H]([C@H](NC(=O)[C@@H]2C[C@@H](CCC)CN2C)[C@H](C)Cl)O[C@@H]1SC ... -16.5
C=C1C(=C/C=C2\CCC[C@]3(C)[C@@H]([C@H](C)CCCC(C)C)CC[C@@H]23)C[C@@H](O)C[C@@H]1O ... -2.16

Query string: Supply reported max response belonging to this molecule: CC(O)[C@@H]1NC(=O)[C@H](CCCCN)NC(=O)[C@@H](Cc2c[nH]c3ccccc23)NC(=O)[C@H](Cc2ccccc2)NC(=O)[C@@H](NC(=O)[C@H](N)Cc2ccccc2)CSSC[C@@H](C(=O)N[C@H](CO)[C@@H](C)O)NC1=O (stereo partly specified)
Result string: -8.72

Query string: Find the measured max response of NC[C@@H]1O[C@H](O[C@H]2[C@@H](O)[C@H](O[C@@H]3[C@@H](O)[C@H](N)C[C@H](N)[C@H]3O[C@H]3O[C@H](CN)[C@@H](O)[C@H](O)[C@H]3N)O[C@@H]2CO)[C@H](N)[C@@H](O)[C@@H]1O and report it.
Result string: -12
